- protocol text: qHTS profiling of the MIPE4 collection as inhibitors of Plasmodium falciparum (3D7) proliferation (AID 743344);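 also: scaled between DMSO vehicle wells and 0.29 µM artemisinin as full inhibition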
- test context: P. falciparum 3D7 in erythrocytes, SYBR Green DNA fluorescence, 72 h; at 28.5 µM unless noted
quantity: parasite growth, % of DMSO control (%)
Answers are plain numbers, in %.

Study these solved cases before continuing.
compound | unit | parasite growth, % of DMSO control
O=NN(CCCl)C(=O)NCCCl | % | 95.8
O=C(O)C(=O)c1cn(Cc2ccccc2)c2ccc(-c3ccc(OC(F)(F)F)cc3)cc12 | % | 222
C[C@@H]1O[C@@H](O[C@H]2C[C@@H](O)[C@]3(CO)[C@H]4[C@H](O)C[C@]5(C)[C@@H](C6=CC(=O)OC6)CC[C@]5(O)[C@@H]4CC[C@]3(O)C2)[C@H](O)[C@H](O)[C@H]1O | % | 81.9
C=C(C)[C@H]1Cc2c(ccc3c2O[C@@H]2COc4cc(OC)c(OC)cc4[C@@H]2C3=O)O1 | % | 86.6
Cn1c(CCCC(=O)O)nc2cc(N(CCCl)CCCl)ccc21 | % | 97.1

Dear reader, for each entry below, please note its parasite growth, % of DMSO control.
1. C[C@@H]1[C@@H](CC(C[C@H]2O[C@@H]3O[C@]4(C)CC[C@@H]5[C@H](C)CC[C@@H]([C@H]2C)[C@@]35OO4)C[S+](=O)([O-])c2ccc(COC(=O)N(C)C)cc2)O[C@@H]2O[C@]3(C)CC[C@H]4[C@H](C)CC[C@@H]1[C@@]24OO3 (stereo partly specified)
2. CNCC(O)c1ccc(O)cc1 (stereo unspecified)
3. OC(Cn1cncn1)(Cn1cncn1)c1ccc(F)cc1F
4. Cc1nc2n(c(=O)c1CCN1CCC(c3noc4cc(F)ccc34)CC1)CCCC2
5. CCOC(=O)c1ncn2c1CN(C)C(=O)c1cc(F)ccc1-2

Response:
1: 25.5; 2: 81.9; 3: 95.6; 4: 38.3; 5: 69.1

Query: GET /values?readout=parasite growth, % of DMSO control&item= COC1(CS(=O)c2ccccc2)CCN(CCc2c[nH]c3ccc(F)cc23)CC1 (stereo unspecified)
Response: 36.7

* * *

- subject of test: Arylsulfatase A (Homo sapiens) (UniProt P15289)
- Sequence (P15289 whole entry, looked up): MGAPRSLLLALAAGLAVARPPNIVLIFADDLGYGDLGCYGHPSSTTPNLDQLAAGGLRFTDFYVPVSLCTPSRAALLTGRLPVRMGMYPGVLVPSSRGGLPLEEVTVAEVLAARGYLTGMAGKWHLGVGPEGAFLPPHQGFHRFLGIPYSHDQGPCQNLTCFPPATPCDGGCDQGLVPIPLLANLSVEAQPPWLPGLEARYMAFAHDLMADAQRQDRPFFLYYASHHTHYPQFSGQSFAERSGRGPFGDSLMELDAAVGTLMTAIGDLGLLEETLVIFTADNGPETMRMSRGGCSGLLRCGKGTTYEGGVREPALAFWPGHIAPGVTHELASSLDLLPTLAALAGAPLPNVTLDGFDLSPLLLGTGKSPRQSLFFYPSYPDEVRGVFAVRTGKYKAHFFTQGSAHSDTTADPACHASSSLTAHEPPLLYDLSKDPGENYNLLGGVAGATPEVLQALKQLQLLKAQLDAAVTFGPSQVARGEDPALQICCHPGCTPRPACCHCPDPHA
- protocol text: qHTS screen for enhancers of Arylsulfatase A (ASA1): LOPAC Validation Assay (AID 720538)
- test context: ASA enzyme activity, LOPAC qHTS enhancer assay; series mostly up to 57.5 µM
Records with an inconclusive call do not appear. Calls of active or inactive are those of the source. The call rests on the fitted dose curve; in most records, active means well fitted activation curve with a large enough effect; inconclusive means small, poorly fitted or top-dose-only effect; inactive means no such curve, though single readings can be large or run the other way.
Return exactly one item of Yes for active, No for inactive

Query: Hi, sorry to bother you, what did the test record for `CCCN1CCC[C@@H]2Cc3[nH]ncc3C[C@H]21` ?
Response: No

Query: Identify the outcome logged in this assay for the molecule shown: C[C@]12CC[C@@H]3c4ccc(O)cc4C[C@@H](CCCCCCCCCS(=O)CCCC(F)(F)C(F)(F)F)[C@H]3[C@@H]1CC[C@@H]2O (some centres not stated)
Response: No

Query: // outcome(item) with item = `Cc1cc2c(C(C)C)c(O)c(O)c(C=O)c2c(O)c1-c1c(C)cc2c(C(C)C)c(O)c(O)c(C=O)c2c1O`
Response: Yes

Query: What is the recorded call for this molecule in the test? CCC1(C2=NCCN2)Cc2ccccc2O1 (configuration not stated)
Response: No

Query: What did the test return for `CC[C@@H](CO)NC(=O)[C@@H]1C=C2c3cccc4[nH]cc(c34)C[C@H]2N(C)C1` ?
Response: No

Query: Which outcome was assigned to `O=c1[nH]c2ccccc2n1CCCN1CCC(n2c(=O)[nH]c3cc(Cl)ccc32)CC1` in this test?
Response: No

Query: Look up the recorded call for `C[C@@H]1O[C@@H](O[C@H]2C[C@@H](O)[C@]3(CO)[C@H]4[C@H](O)C[C@]5(C)[C@@H](C6=CC(=O)OC6)CC[C@]5(O)[C@@H]4CC[C@]3(O)C2)[C@H](O)[C@H](O)[C@H]1O` in this test.
Response: No

* * *

- protocol text: Primary qHTS for inhibitors of MERS-S pseudo-typed particle cell entry (AID 1479149); also: nearly all actives have a fitted effect of over 60% in size
- test context: MERS-S pseudotyped particle entry, luciferase; series mostly up to 57.1 µM
Inconclusive results are not listed. Activity calls are given as the source filed them. Calls follow the shape of the full dose curve.
The categories you may choose from are true (1) (active), false (0) (inactive)

Query: Could you kindly confirm the outcome this assay logged for `Nc1nnc(-c2cccc(Cl)c2Cl)c(N)n1` ?
Response: false (0)

Query: // outcome(item) with item = `Cc1ccsc1C(=CCCN1CCC[C@@H](C(=O)O)C1)c1sccc1C`
Response: false (0)

Query: Look up the recorded call for `CC(C)C(=O)Nc1ccc([N+](=O)[O-])c(C(F)(F)F)c1` in this test.
Response: true (1)

Query: Per the assay record, what outcome was assigned to `CCCc1cc(=O)[nH]c(=S)[nH]1` ?
Response: false (0)

Query: Status in this test for `Cc1c(O)cccc1C(=O)N[C@@H](CSc1ccccc1)[C@H](O)CN1C[C@H]2CCCC[C@H]2C[C@H]1C(=O)NC(C)(C)C` ?
Response: false (0)

* * *

- Test system: MKL-1
- protocol text: qHTS assay to identify novel small-molecules to repurpose for Merkel cell carcinoma treatment (AID 1296009); also: nearly all actives have a fitted effect of over 60% in size; also: potency is read from the fitted curve at half-maximal effect
- test context: MCC and control cell lines, CellTiter-Glo viability, 72 h; series mostly up to 46 µM
- Excerpt: MCC is a rare and aggressive neuroendocrine skin cancer with limited treatment options. Approximately 80% of MCCs have the Merkel cell polyomavirus (MCPyV) DNA integrated into the host genome (virus-positive: VP-MCC) and viral oncogenes drive oncogenesis. The remaining MCCs are virus-negative (VN-MCC) and are caused by UV mutagenesis. […] Using cell viability as a readout (CellTiter-Glo assay) we found both overlapping and distinct drugs that can be repurposed for the treatment of VP-MCC and VN-MCC. […]
Records with an inconclusive call do not appear. The source made the active and inactive calls. The call rests on the fitted dose curve; in most records, active means well fitted inhibition curve with a large enough effect; inconclusive means small, poorly fitted or top-dose-only effect; inactive means flat fitted curve, though single readings scatter.
quantity: Potency

Record excerpt, results attached:
molecule | subject of test | observed result
CCN(CC)CCOC(=O)C(O)(c1ccccc1)c1ccccc1 | MKL-1 | inactive
CC1=C2C[C@@H]3[C@@H](CC=C4C[C@@H](O)CC[C@@]43C)[C@@H]2CC[C@]12O[C@H]1C[C@H](C)CN[C@H]1[C@H]2C | MKL-1 | inactive
NP(N)(=O)NC(=O)c1ccc(F)cc1 | MKL-1 | inactive
CNC(=O)c1ccc(N2C(=S)N(c3ccc(C#N)c(C(F)(F)F)c3)C(=O)C23CCC3)cc1F | MKL-1 | inactive

Record Potency per entry; entries follow.
1. CCC1(C2=NCCN2)Cc2ccccc2O1 (stereo unspecified)
2. c1ccc2c(c1)Nc1ccccc1S2
3. N#CC(C#N)=Cc1ccc(O)c(O)c1
4. Fc1ccc(C(OCCN2CCN(CCCc3ccccc3)CC2)c2ccc(F)cc2)cc1
5. CC(=O)Nc1cc([As](=O)(O)O)ccc1O

Response:
1. inactive
2. inactive
3. 7.5 µM (active)
4. 9.44 µM (active)
5. inactive

Provide each entry's Potency from the list below.
1. CCN(C(C)=O)c1cccc(-c2ccnc3c(C#N)cnn23)c1
2. O=C(O)c1ccc2[nH]cc(CCCCN3CC=C(c4ccccc4)CC3)c2c1

Response:
inactive
inactive

* * *

- Tested on: HEK293
- protocol text: Cytotoxic Profiling of Annotated Libraries Using Quantitative High-Throughput Screening (AID 1296008); also: % is scaled to controls: 0 for no effect and ±100 for the full control effect; nearly all actives have a fitted effect of over 60% in size
- test context: Five cell lines viability, CellTiter-Glo ATP luminescence, 48-72 h; stronger effect = lower value
Records with an inconclusive call do not appear.
For each record, write down the corresponding max response.
Numbers only, in %.

The cases that follow already have their max response on record.
molecule | observed result
NCC(CC(=O)O)c1ccc(Cl)cc1 (configuration not stated) | -1.23
COC1(CS(=O)c2ccccc2)CCN(CCc2c[nH]c3ccc(F)cc23)CC1 (configuration not stated) | -11.2
NN=C(N)N | -4.43
CCCN1CCC[C@@H]2Cc3nc(N)ncc3C[C@H]21 | -17.9
C[C@]12C/C(=C/O)C(=O)C[C@@H]1CC[C@@H]1[C@@H]2CC[C@@]2(C)[C@H]1CC[C@]2(C)O | -8.16

For every listed record, write down its max response.
1. Cc1ccc2c(c1)C1CN(C)CCC1N2 (configuration not stated)
2. CCCN1CCC[C@@H]2Cc3[nH]ncc3C[C@H]21
3. Cc1ncc(CNC(=O)N(CCCl)N=O)c(N)n1
4. CCCC1CCCCN1 (configuration not stated)
5. C=C1CC[C@@]2(O)[C@H]3Cc4ccc(O)c5c4[C@@]2(CCN3CC2CC2)[C@H]1O5
6. CCN(CC)CCOC(=O)C(O)(c1ccccc1)c1ccccc1

Response:
1: 1.62; 2: -0.855; 3: 2.72; 4: -7.03; 5: -5.09; 6: 3.4

Query: Look up max response: `CC[C@@H](CO)NC(=O)[C@@H]1C=C2c3cccc4[nH]cc(c34)C[C@H]2N(C)C1`
Response: -3.34
